Target or system c-Cbl (residues 47-435) (Homo sapiens (Human), UniProt P22681): recorded pKd listed per item.
pKd: −log10 of the molar value.
measurement-type: pKd

1. CCNc1cc([C@]2(c3nncn3C)C[C@@H](C)C2)cc(N2Cc3c(cc(CNC4(C)CCC4)cc3C(F)F)C2=O)n1 [Compound 274]
2. Cn1cnnc1C1(c2cc(OC3CCCC3)nc(N3Cc4c(cc(CNC5(C)CCC5)cc4C(F)(F)F)C3=O)c2)CC2(COC2)C1 [Compound 193]
3. CC[C@H](NC1(C)CCC1)c1cc2c(c(C(F)(F)F)c1)CN(c1cccc([C@H](c3nncn3C)C3COC3)c1)C2=O [Compound 313]
## Task Sort the 3 compounds by pKd; largest first, smallest last. Show the ranking through the labels, in the order asked for.
## Result 1, 3, 2

====

system: Cbl-b (Homo sapiens (Human), UniProt Q13191)
Sequence (Q13191 40-426): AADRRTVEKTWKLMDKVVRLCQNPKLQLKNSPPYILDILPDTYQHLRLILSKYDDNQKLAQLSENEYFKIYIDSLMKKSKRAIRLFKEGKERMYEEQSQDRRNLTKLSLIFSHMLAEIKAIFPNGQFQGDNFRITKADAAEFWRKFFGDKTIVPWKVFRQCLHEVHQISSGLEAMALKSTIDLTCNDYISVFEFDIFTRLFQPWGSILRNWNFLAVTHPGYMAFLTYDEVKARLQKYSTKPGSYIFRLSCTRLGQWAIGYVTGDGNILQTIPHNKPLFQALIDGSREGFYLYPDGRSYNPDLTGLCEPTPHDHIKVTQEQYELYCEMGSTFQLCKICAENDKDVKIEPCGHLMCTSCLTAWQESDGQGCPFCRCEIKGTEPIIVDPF
test-name: Cbl-b LCK Ub TR-FRET assay (Cbl-b Lck HTRF)
Format: biochemical
condition-parameters: ratio C-cbl Lck HTRF IC50 / Cbl-b Lck HTRF IC50
measurement-type: fold-selectivity (Cbl-b over C-cbl) (x)

Example entries begin here.
compound	units-label	fold-selectivity (Cbl-b over C-cbl)
Cn1cnnc1[C@@H](c1cccc(N2Cc3c(cc(CNC4(C)CCC4)cc3C(F)(F)F)C2=O)c1)C1CC(OCC(F)F)C1 (stereo partly drawn) [Compound 260]	x	5.4
COC[C@H]1CC1(c1cccc(N2Cc3c(cc(CNC4(C)CCC4)cc3C(F)(F)F)C2=O)c1)c1nncn1C (single isomer, unassigned)	x	4.7
Cc1cc([C@@H](c2nncn2C)C2COC2)cc(N2Cc3c(cc(CNC4(C)CCC4)cc3C(F)(F)F)C2=O)c1 (single isomer, unassigned)	x	1.0

A. Cn1cnnc1[C@@H](c1cccc(N2Cc3c(Cl)cc(CNC4(C)CCC4)cc3C2=O)c1)[C@H]1C[C@H](F)C1 (single isomer, unassigned)
B. CCCN1CC(c2cc3c(c(C(F)(F)F)c2)CN(c2cccc([C@H](c4nncn4C)C4COC4)c2)C3=O)C1
## Task Task for the reader: decide whether A or B has the larger fold-selectivity (Cbl-b over C-cbl). Respond with the label that goes with your answer.
## Result A
(A: 5.6 x, B: 2.6 x)

====

system: Human Cbl-b (residues 40-426) (Homo sapiens (Human), UniProt Q13191)
test-name: Cbl-b SPR assay
Type: binding
condition-parameters: C-cbl SPR Kd vs Cbl-b SPR Kd
measurement-type: Fold of selectivity (×)

molecule	measurement-type	test-value
CO[C@H]1C[C@@](c2cc(NC3COC3)cc(N3Cc4c(cc(CNC5(C)CCC5)cc4C(F)(F)F)C3=O)c2)(c2nncn2C)C1	Fold of selectivity	14
CCNc1cc(C2(c3nncn3C)CC3(COC3)C2)cc(N2Cc3c(cc(CNC4(C)CCC4)cc3C(F)(F)F)C2=O)n1	Fold of selectivity	4.4
CCOc1cc(N2Cc3c(cc(CNC4(C)CCC4)cc3C(F)(F)F)C2=O)cc([C@]2(c3nncn3C)C[C@H](C)C2)c1	Fold of selectivity	3.3

a. CNc1cc(N2Cc3c(cc(CNC4(C)CCC4)cc3C(F)(F)F)C2=O)cc([C@]2(c3nncn3C)C[C@@H](OC)C2)c1
b. Cn1cnnc1C(c1cccc(N2Cc3c(cc(CNC4(C)CCC4)cc3C(F)(F)F)C2=O)c1)[C@H]1C[C@@H](CC#N)C1 (single isomer, unassigned) [Compound 365]
c. CCO[C@H]1C[C@](c2cccc(N3Cc4c(cc(CNC5(C)CCC5)cc4C(F)(F)F)C3=O)c2)(c2nncn2C)C1
## Task Reorder: Fold of selectivity, max to min. Show the ranking through the labels, in the order asked for.
## Result c, b, a

Ref: patent US12187709B2
